test: chemical genetic growth profiling, strain panel (AID 1159580);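 note: tested at 20 µM; growth read once vehicle control cultures reached saturation at 30 °C; lower values mean less growth of the strain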; conditions: S. cerevisiae deletion strains, growth OD, locus YHR079C, strain IRE1
In all, about 5,500 compounds went through this assay and about 2,000 (36%) were called active. Another 18% or so got no clear call; they are omitted. Cut-off read from the data, not from the text of the source: active = normalized growth mostly below about 0.91 (no sharp cut-off); inconclusive = no clear call, values can overlap the other calls; inactive = mostly above about 0.92. Some of the results follow.
Select the matching outcome among active, inactive

COMPOUND	LABEL
O=C(NC1CCCCC1)NC1CCCCC1	inactive
CC(=O)OCC(=O)[C@@]1(O)CCC2C3CCC4=CC(=O)CC[C@]4(C)C3[C@@H](O)C[C@@]21C (some centres not stated)	inactive
CC(=O)Oc1ccccc1C(=O)O	inactive
FC(F)(F)c1cc(-c2ccc(Cl)cc2)n[nH]1	inactive
NCCc1cc(O)c(O)cc1O	inactive
C#CC1(O)CCC2C3CCC4=CC(=O)CCC4(C)C3CCC21C (configuration not stated)	inactive

Hey, what did the test say about "COc1ccc(C(=O)O)c(O)c1OC" ?
inactive

Would you mind telling me which call this test gave "CCOc1ccc(C(=O)c2ccc(OC)c(O)c2O)cc1" ?
inactive

Given C=C(C)[C@@H]1CC[C@]2(C)CC[C@]3(C)[C@@H](CCC4[C@@]5(C)CC[C@H](O)C(C)(C)C5CC[C@]43C)C12 (some centres not stated) , state the outcome it received in this test.
inactive

Assay result, entry C#C[C@]1(O)CCC2C3CCC4=Cc5oncc5C[C@]4(C)C3CC[C@@]21C (some centres not stated) — outcome?
inactive

Please indicate how the test categorized CO[C@H]1C[C@H](O[C@H]2[C@H](C)[C@@H](OC3O[C@H](C)C[C@H](N(C)C)[C@H]3OC(C)=O)[C@@H](C)C[C@]3(CO3)C(=O)[C@H](C)[C@@H](OC(C)=O)[C@@H](C)[C@@H](C)OC(=O)[C@@H]2C)O[C@@H](C)[C@@H]1OC(C)=O (some centres not stated) .
inactive

What did this assay record as the result for "c1ccc2c(Cc3c[nH]c4ccccc34)c[nH]c2c1" ?
active
